For each of the molecules below, state its IP.
molecular target: Glucocorticoid receptor (Homo sapiens) (UniProt P04150); assay: Transactivation activity at GR-mediated modulation of MMTV promoter activity in human HeLa cells transfected with luciferase gene linked to MMTV promoter after 16 hrs by luciferase reporter gene assay; assay type: cell-based
Sequence (P04150 whole entry): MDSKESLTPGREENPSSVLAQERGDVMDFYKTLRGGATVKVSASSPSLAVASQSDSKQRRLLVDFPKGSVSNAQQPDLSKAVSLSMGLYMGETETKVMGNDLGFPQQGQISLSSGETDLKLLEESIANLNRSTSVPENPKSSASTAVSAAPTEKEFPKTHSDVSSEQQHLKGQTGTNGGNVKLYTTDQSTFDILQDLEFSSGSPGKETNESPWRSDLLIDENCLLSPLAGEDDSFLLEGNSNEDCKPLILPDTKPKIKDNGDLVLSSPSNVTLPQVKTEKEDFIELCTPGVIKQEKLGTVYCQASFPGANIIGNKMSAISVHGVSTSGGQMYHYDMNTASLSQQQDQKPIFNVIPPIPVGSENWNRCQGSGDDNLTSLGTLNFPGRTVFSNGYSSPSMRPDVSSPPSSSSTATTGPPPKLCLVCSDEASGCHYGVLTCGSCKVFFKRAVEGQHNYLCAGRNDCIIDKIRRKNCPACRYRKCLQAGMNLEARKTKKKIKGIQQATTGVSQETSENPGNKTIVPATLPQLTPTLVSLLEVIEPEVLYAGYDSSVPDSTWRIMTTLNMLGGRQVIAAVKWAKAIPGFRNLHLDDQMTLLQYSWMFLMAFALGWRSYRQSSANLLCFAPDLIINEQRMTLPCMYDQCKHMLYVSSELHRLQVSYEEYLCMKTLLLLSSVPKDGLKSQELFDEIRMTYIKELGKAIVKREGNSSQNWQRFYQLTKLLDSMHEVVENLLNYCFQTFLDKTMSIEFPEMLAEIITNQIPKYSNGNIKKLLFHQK
Express your answer in nM, writing the number without its unit.

Challenge: Would you kindly share the measured IP for CC(C)NC(=O)c1ccccc1CC[C@]1(O)CCC2=Cc3c(cnn3-c3ccc(F)cc3)C[C@@]21C ?
Response given: 83

Challenge: Would you kindly share the measured IP for CCNC(=O)c1ccccc1CC[C@]1(O)CCC2=Cc3c(cnn3-c3ccc(F)cc3)C(O)[C@@]21C (stereo partly drawn) ?
Response given: 1320

Challenge: Would you kindly share the measured IP for CCNC(=O)c1ccccc1CC[C@]1(O)CCC2=Cc3c(cnn3-c3ccc(F)cc3)C[C@@]21C ?
Response given: 107

Challenge: Would you kindly share the measured IP for C[C@]12Cc3cnn(-c4ccc(F)cc4)c3C=C1CC[C@@]2(O)CCc1cccc(F)c1C(=O)NC1(CO)CC1 ?
Response given: 35

Challenge: Would you kindly share the measured IP for CC1(NC(=O)c2c(F)cccc2CC[C@]2(O)CCC3=Cc4c(cnn4-c4ccc(F)cc4)C[C@@]32C)CC1 ?
Response given: 27

Challenge: Would you kindly share the measured IP for CCCNC(=O)c1c(F)cccc1CC[C@]1(O)CCC2=Cc3c(cnn3-c3ccc(F)cc3)C[C@@]21C ?
Response given: 43

Challenge: Would you kindly share the measured IP for C=CCNC(=O)c1ccccc1CC[C@]1(O)CCC2=Cc3c(cnn3-c3ccc(F)cc3)C[C@@]21C ?
Response given: 93

Challenge: Would you kindly share the measured IP for C[C@]12Cc3cnn(-c4ccc(F)cc4)c3C=C1CC[C@@]2(O)CCc1ccccc1C(N)=O ?
Response given: 130

---

experiment: Drug uptake in oxazolone-induced Sprague-Dawley rat chronic dermatitis model at 20 mg/kg, po; type: ADME, organism-based; parameters: dose 20 mg/kg, route oral; details: in vivo, read-out: Drug uptake
Reported property: AUC

Challenge: Would you kindly share the measured AUC for CCNC(=O)c1ccccc1CC[C@]1(O)CCC2=Cc3c(cnn3-c3ccc(F)cc3)C[C@@]21C ?
Response given: 75 µM·h

---

For each of the molecules below, state its Emax.
biological target: Glucocorticoid receptor (Homo sapiens); assay: Transactivation activity at GR-mediated modulation of MMTV promoter activity in human HeLa cells transfected with luciferase gene linked to MMTV promoter after 16 hrs by luciferase reporter gene assay relative to dexamethasone; assay type: cell-based

Challenge: Would you kindly share the measured Emax for C[C@@]12C(=Cc3c(cnn3-c3ccc(F)cc3)C1O)CC[C@@]2(O)CCc1ccc(F)cc1C(N)=O (some centres undefined) ?
Response given: < 5%

Challenge: Would you kindly share the measured Emax for CC(C)(CO)NC(=O)c1ccccc1CC[C@]1(O)CCC2=Cc3c(cnn3-c3ccc(F)cc3)C[C@@]21C ?
Response given: 71%

Challenge: Would you kindly share the measured Emax for C[C@]12Cc3cnn(-c4ccc(F)cc4)c3C=C1CC[C@@]2(O)CCc1ccccc1C(N)=O ?
Response given: 66%

Challenge: Would you kindly share the measured Emax for C[C@]12Cc3cnn(-c4ccc(F)cc4)c3C=C1CC[C@@]2(O)CCc1ccc(F)cc1C(N)=O ?
Response given: 23%

---

target: Glucocorticoid receptor (Homo sapiens) (UniProt P04150); assay: Transrepression activity at glucocorticoid receptor in human LPS and TPA-stimulated U937 cells assessed as effect on glucocorticoid-induced TNFalpha repression by beta lactamase reporter gene assay relative to dexamethasone; assay type: cell-based; conditions: U-937
Reported property: Emax (%)
Express your answer in %, writing the number without its unit.

Challenge: Quick check: Emax on Glucocorticoid receptor (Homo sapiens) (UniProt P04150), item CCCNC(=O)c1c(F)cccc1CC[C@]1(O)CCC2=Cc3c(cnn3-c3ccc(F)cc3)C[C@@]21C ?
Response given: 72

Challenge: Quick check: Emax on Glucocorticoid receptor (Homo sapiens) (UniProt P04150), item CCCNC(=O)c1ccccc1CC[C@]1(O)CCC2=Cc3c(cnn3-c3ccc(F)cc3)C[C@@]21C ?
Response given: 50

Challenge: Quick check: Emax on Glucocorticoid receptor (Homo sapiens) (UniProt P04150), item C[C@]12Cc3cnn(-c4ccc(F)cc4)c3C=C1CC[C@@]2(O)CCc1c(F)cccc1C(N)=O ?
Response given: 90

Challenge: Quick check: Emax on Glucocorticoid receptor (Homo sapiens) (UniProt P04150), item C[C@]12Cc3cnn(-c4ccc(F)cc4)c3C=C1CC[C@@]2(O)CCc1cccc(F)c1C(N)=O ?
Response given: 84

Challenge: Quick check: Emax on Glucocorticoid receptor (Homo sapiens) (UniProt P04150), item CC(C)(C)NC(=O)c1ccccc1CC[C@]1(O)CCC2=Cc3c(cnn3-c3ccc(F)cc3)C[C@@]21C ?
Response given: 79
